Biological target: CDK6/Cyclin D1 (Homo sapiens, UniProt Q00534)
Sequence (Q00534 whole entry): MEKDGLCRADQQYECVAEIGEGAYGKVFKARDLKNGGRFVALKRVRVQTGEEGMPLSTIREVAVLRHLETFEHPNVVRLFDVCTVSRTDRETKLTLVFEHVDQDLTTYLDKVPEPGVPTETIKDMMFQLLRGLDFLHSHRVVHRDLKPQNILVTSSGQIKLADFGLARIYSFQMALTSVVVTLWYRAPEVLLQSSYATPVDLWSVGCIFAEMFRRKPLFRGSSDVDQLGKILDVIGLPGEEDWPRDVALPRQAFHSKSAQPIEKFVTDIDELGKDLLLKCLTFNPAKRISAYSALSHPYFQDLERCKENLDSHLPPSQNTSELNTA
Sequence (P24385 whole entry partner): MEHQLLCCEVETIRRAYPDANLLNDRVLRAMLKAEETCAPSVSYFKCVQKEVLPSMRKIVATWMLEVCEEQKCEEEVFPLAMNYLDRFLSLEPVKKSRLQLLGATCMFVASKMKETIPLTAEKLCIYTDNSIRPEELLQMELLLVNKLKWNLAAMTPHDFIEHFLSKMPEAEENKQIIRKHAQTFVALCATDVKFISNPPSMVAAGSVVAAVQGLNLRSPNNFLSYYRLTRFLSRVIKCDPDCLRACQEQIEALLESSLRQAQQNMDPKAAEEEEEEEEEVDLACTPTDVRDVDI
Assay: NanoBRET live-cell target engagement, NanoLuc-CDK6/Cyclin D1 in HEK-293
Assay type: binding
Conditions: CDK6/D1; 10µM; read-out: Inhibition at 10µM (%) Replicate 2
inhibition at 10 µM reference

| Compound | inhibition at 10 µM [%] |
| --- | --- |
| C[C@H]1CC[C@H](n2c3cnccc3c3cnc(Nc4ccc5c(n4)CCN(C(=O)CO)C5)nc32)CC1 | 99.5 |
| CC(C)c1cnn2c(NCc3ccccc3)cc(NCCCCCCN)nc12 | 15.5 |
| Cc1ncc(-c2ccnc(Nc3ccc(S(C)(=O)=O)cc3)n2)n1C(C)C | 91.7 |
| CCN1CCN(Cc2ccc(NC(=O)Nc3ccc(Oc4cc(NC)ncn4)cc3)cc2C(F)(F)F)CC1 | 86.2 |
| CCCCOc1c(C(=O)c2c(F)cc(C)cc2F)c[nH]c2nncc1-2 | 71.8 |
| COc1cc(F)ccc1-c1cc(Nc2cc(CS(C)(=N)=O)ccn2)ncc1F (centres unmarked) | 89.1 |
| CCN1CCN(Cc2ccc(Nc3ncc(F)c(-c4cc(F)c5nc(C)n(C(C)C)c5c4)n3)nc2)CC1 | 99.4 |
| COc1cc(F)ccc1-c1ncnc(Nc2cccc(C[S@](C)(=N)=O)c2)n1 | 66.4 |

====

Biological target: CDK3/Cyclin E1 (Homo sapiens)
Assay: NanoBRET live-cell target engagement, CDK3-NanoLuc/Cyclin E1 in HEK-293
Type: binding
Conditions: CDK3/E1; 10µM
Attribute measured: Inhibition at 10µM (%) Replicate 2

| Compound | Subject of test | Attribute measured | Result |
| --- | --- | --- | --- |
| CC(C)c1cnn2c(NCc3ccccc3)cc(N[C@@H](CO)[C@H](O)CO)nc12 | CDK3/Cyclin E1 (Homo sapiens) | Inhibition at 10µM (%) Replicate 2 | 97.8% |
| CNC1CCN(C(=O)c2ccc(Nc3ncc(F)c(-c4cnc(C)n4C(C)C)n3)cc2)C1 (stereo not shown) | CDK3/Cyclin E1 (Homo sapiens) | Inhibition at 10µM (%) Replicate 2 | 98.8% |
| CCC(CO)Nc1nc(Nc2cccc(-c3ccccn3)c2)c2ncn(C(C)C)c2n1.Cl.O [(R) - DRF053] | CDK3/Cyclin E1 (Homo sapiens) | Inhibition at 10µM (%) Replicate 2 | 71.8% |
| O=C(Nc1c[nH]nc1-c1ccccn1)c1nn(C2CCNCC2)cc1Cl | CDK3/Cyclin E1 (Homo sapiens) | Inhibition at 10µM (%) Replicate 2 | 3.4% |

====

Readings of pIC50 for the listed compounds
Molecular target: CDK11A/Cyclin L2 (Homo sapiens)
Sequence (Q9UQ88 1-783): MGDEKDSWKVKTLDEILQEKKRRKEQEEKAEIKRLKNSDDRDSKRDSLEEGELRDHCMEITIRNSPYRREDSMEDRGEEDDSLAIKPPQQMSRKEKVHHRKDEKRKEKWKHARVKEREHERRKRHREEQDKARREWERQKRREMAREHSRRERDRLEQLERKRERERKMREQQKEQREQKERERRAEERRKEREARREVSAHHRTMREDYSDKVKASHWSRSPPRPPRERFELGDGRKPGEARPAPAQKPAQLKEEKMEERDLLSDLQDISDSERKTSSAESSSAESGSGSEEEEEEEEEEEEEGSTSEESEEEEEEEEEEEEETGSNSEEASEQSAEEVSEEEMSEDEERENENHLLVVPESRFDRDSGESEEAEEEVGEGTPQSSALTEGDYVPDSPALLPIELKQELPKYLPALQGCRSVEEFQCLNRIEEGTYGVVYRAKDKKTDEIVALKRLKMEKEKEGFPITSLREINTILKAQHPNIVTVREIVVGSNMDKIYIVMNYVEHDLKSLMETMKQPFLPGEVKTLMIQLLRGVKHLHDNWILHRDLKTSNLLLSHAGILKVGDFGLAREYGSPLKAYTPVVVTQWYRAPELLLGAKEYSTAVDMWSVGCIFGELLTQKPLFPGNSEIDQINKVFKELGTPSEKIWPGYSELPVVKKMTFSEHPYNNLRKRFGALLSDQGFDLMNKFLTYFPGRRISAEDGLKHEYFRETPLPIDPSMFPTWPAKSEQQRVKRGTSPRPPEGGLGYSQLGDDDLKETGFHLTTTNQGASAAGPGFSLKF
Assay: NanoBRET live-cell target engagement, CDK11A-NanoLuc/Cyclin L2 in HEK-293
Assay type: binding
Conditions: CDK11a/L2; average (± SEM where n=3); read-out: IC50
pIC50: −log10 of the molar value.

| Compound | pIC50 |
| --- | --- |
| CS(=O)(=O)N1CCC(NC(=O)c2[nH]ncc2NC(=O)c2c(Cl)cccc2Cl)CC1 | 6.80 |
| CC(C)c1c2cc(-c3ccnc(N[C@H]4CC[C@H](NC5CCOCC5)CC4)n3)ccc2nn1C | 7.77 |
| COc1ccc(F)cc1-c1cc(NC(=O)C2CCCNC2)ncc1Cl (stereo not drawn) | 7.70 |

====

Biological target: CDK18/Cyclin Y (Homo sapiens, UniProt Q07002)
Sequence (Q07002 whole entry): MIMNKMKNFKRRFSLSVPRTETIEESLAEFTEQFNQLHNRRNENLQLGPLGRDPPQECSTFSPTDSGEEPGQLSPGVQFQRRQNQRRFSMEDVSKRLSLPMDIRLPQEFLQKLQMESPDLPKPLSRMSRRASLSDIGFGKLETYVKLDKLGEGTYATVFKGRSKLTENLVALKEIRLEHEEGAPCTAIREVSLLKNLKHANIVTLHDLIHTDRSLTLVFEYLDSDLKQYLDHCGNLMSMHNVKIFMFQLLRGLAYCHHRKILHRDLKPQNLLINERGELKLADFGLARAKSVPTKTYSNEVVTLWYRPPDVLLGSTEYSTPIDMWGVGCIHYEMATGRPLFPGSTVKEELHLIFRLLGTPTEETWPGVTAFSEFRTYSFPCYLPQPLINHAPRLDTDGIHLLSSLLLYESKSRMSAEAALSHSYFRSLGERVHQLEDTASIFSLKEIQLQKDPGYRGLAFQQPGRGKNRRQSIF
Sequence (Q8ND76 whole entry partner): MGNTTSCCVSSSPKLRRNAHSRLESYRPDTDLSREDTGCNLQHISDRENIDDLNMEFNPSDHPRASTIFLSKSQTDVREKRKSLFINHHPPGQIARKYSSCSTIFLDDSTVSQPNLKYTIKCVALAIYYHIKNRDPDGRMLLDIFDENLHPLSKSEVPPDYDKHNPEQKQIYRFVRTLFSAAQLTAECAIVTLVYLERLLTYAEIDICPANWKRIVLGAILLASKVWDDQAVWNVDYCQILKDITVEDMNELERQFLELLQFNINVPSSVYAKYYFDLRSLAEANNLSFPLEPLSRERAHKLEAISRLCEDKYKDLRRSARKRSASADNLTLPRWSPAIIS
Test: NanoBRET live-cell target engagement, CDK18-NanoLuc/Cyclin Y in HEK-293
Assay type: binding
Conditions: CDK18/Y; read-out: IC50 (nM) Replicate 1
Attribute measured: IC50 (nM)

| Compound | Scale unit | Quantitative readout |
| --- | --- | --- |
| CNC1CCN(C(=O)c2ccc(Nc3ncc(F)c(-c4cnc(C)n4C(C)C)n3)cc2)C1 (stereo not shown) [AZD5597] | nM | 86 |
| CC(C)c1cnn2c(NCc3ccccc3)cc(N[C@@H](CO)[C@H](O)CO)nc12 [BS-194] | nM | 448 |
| Cc1ncc(-c2ccnc(Nc3ccc(S(C)(=O)=O)cc3)n2)n1C(C)C [AZD5438] | nM | 566 |
| CCN1CCN(Cc2ccc(Nc3ncc(F)c(-c4cc(F)c5nc(C)n(C(C)C)c5c4)n3)nc2)CC1 [Abemaciclib] | nM | 304 |

====

Target: CDK12/Cyclin K (Homo sapiens)
Sequence (Q9NYV4 1-1481 isoform Q9NYV4-2): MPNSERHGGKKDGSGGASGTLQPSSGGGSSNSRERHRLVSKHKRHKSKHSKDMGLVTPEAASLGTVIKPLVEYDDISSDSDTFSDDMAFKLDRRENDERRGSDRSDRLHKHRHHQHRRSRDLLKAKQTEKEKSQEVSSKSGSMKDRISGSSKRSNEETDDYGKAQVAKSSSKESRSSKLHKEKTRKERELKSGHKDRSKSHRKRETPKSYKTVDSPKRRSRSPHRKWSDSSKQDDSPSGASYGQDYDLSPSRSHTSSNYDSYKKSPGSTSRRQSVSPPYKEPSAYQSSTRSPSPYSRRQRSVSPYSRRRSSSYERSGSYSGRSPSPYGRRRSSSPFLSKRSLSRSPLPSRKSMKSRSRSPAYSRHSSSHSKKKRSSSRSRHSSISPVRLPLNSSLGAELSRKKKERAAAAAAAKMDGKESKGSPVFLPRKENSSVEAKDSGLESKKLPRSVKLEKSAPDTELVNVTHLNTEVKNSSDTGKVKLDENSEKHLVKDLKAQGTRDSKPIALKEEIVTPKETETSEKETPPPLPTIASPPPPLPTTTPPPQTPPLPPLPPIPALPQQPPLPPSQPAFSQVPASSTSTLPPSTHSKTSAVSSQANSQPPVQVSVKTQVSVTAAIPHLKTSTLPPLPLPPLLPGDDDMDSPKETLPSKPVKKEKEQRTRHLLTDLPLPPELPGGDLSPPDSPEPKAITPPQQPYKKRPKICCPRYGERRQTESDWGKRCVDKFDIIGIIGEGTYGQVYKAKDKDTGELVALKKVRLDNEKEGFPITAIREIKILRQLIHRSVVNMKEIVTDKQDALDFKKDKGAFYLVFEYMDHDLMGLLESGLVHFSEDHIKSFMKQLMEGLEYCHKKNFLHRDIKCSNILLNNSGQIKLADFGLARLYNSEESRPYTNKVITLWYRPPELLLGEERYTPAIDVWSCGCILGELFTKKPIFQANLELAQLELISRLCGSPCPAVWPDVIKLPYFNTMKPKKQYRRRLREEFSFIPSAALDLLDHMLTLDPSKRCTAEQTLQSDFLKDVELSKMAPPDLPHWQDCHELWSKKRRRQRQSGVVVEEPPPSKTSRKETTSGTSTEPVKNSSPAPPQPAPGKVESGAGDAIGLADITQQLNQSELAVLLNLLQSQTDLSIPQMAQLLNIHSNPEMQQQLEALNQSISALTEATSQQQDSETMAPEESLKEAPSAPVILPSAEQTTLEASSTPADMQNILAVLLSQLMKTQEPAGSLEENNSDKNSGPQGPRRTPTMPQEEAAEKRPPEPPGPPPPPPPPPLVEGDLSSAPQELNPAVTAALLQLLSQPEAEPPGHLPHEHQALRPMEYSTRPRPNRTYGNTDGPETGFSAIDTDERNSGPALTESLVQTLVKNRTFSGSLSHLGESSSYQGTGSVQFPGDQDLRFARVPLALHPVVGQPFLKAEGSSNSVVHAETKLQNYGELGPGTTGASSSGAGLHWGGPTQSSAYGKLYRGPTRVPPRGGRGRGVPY
Sequence (O75909 whole entry partner): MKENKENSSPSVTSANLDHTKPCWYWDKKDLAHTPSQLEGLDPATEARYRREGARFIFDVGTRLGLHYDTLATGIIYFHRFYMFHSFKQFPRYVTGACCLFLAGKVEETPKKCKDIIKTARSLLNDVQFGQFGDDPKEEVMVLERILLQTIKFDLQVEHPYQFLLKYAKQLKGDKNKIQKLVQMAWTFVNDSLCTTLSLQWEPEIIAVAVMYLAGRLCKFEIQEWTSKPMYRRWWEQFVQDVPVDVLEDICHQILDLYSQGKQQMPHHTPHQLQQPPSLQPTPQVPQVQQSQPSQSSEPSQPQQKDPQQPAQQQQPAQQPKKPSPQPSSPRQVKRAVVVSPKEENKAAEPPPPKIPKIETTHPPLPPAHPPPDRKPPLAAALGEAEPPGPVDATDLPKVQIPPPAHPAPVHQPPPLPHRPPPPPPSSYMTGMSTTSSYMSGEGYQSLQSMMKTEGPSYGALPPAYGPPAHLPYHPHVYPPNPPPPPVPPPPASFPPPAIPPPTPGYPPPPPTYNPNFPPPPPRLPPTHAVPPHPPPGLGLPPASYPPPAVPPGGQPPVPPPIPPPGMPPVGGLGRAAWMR
Experiment: NanoBRET live-cell target engagement, CDK12-NanoLuc/Cyclin K in HEK-293
Type: binding
Settings: CDK12/K; 10µM; read-out: Inhibition at 10µM (%) Replicate 1

| Compound | inhibition at 10 µM |
| --- | --- |
| CCCCOc1c(C(=O)c2c(F)cc(C)cc2F)c[nH]c2nncc1-2 [BMS-265246] | 12.3% |
| CCN1CCN(Cc2ccc(Nc3ncc(F)c(-c4cc(F)c5nc(C)n(C(C)C)c5c4)n3)nc2)CC1 [Abemaciclib] | 10.3% |
| COc1cc(F)ccc1-c1cc(Nc2cc(CS(C)(=N)=O)ccn2)ncc1F (stereo not drawn) [BAY-1251152] | 33% |
| Cc1ncc(-c2ccnc(Nc3ccc(S(C)(=O)=O)cc3)n2)n1C(C)C [AZD5438] | 15.7% |
| O=C(NC1CCNCC1)c1[nH]ncc1NC(=O)c1c(Cl)cccc1Cl [AT7519] | 52.9% |
| CCN1CCN(Cc2ccc(NC(=O)Nc3ccc(Oc4cc(NC)ncn4)cc3)cc2C(F)(F)F)CC1 [AST-487] | 34.4% |

====

Molecular target: CDK3/Cyclin E1 (Homo sapiens, UniProt Q00526)
Assay: NanoBRET live-cell target engagement, CDK3-NanoLuc/Cyclin E1 in HEK-293
Assay type: binding
Details: CDK3/E1; experiment 2
Please enter Fulfilled where Inhibition at 10µM (%) is greater than or equal to 90%, and Not fulfilled where it is lower.

| Compound | Label value |
| --- | --- |
| CN1CCC(c2c(O)cc(O)c3c(=O)cc(-c4ccccc4Cl)oc23)C1CO (stereo not drawn) | Not fulfilled |
| CNc1nc(C)c(-c2nc(Nc3cccc(S(N)(=O)=O)c3)ncc2F)s1 | Fulfilled |
| CCn1cnc2c(Nc3cccc(Cl)c3)nc(N[C@@H]3CCCC[C@@H]3N)nc21 [CGP74514A] | Fulfilled |
| CS(=O)(=O)N1CCC(NC(=O)c2[nH]ncc2NC(=O)c2c(Cl)cccc2Cl)CC1 | Fulfilled |

====

Target: CDK11B/Cyclin L2 (Homo sapiens, UniProt P21127)
Sequence (P21127 1-782 isoform P21127-2): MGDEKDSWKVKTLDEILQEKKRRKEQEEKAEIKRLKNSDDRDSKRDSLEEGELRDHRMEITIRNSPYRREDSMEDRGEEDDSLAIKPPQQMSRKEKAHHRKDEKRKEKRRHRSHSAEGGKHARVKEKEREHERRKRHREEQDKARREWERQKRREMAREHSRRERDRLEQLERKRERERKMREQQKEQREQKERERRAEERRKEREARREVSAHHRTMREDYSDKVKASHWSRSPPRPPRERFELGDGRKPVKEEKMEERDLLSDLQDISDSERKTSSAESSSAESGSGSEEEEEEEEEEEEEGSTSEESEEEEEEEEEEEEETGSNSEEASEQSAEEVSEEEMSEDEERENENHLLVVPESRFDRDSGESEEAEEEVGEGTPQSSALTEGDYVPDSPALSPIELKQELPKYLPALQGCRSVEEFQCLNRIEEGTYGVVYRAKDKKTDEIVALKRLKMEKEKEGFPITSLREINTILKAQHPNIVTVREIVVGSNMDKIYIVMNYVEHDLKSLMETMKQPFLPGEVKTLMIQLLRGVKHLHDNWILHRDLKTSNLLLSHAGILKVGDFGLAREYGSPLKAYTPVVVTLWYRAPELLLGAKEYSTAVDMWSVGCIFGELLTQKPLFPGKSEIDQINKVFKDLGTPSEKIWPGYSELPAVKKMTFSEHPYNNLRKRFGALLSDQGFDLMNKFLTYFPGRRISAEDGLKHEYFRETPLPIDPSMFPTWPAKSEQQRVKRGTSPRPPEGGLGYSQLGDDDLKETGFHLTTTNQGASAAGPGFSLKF
Experiment: NanoBRET live-cell target engagement, CDK11B-NanoLuc/Cyclin L2 in HEK-293
Format: binding
Conditions: CDK11b/L2; experiment 1

| Compound | Subject of test | Scale unit | Inhibition at 10µM (%) |
| --- | --- | --- | --- |
| CCn1cnc2c(Nc3cccc(Cl)c3)nc(N[C@@H]3CCCC[C@@H]3N)nc21 [CGP74514A] | CDK11B/Cyclin L2 (Homo sapiens, UniProt P21127) | % | 20.4 |
| CC(C)c1cnn2c(NCc3ccccc3-n3cccn3)nc(OC3CCCNC3)nc12 (stereo not drawn) | CDK11B/Cyclin L2 (Homo sapiens, UniProt P21127) | % | 54.6 |
| CS(=O)(=O)N1CCC(NC(=O)c2[nH]ncc2NC(=O)c2c(Cl)cccc2Cl)CC1 | CDK11B/Cyclin L2 (Homo sapiens, UniProt P21127) | % | 95.4 |
| CN1CCC(c2c(O)cc(O)c3c(=O)cc(-c4ccccc4Cl)oc23)C1CO (stereo not drawn) | CDK11B/Cyclin L2 (Homo sapiens, UniProt P21127) | % | 56.7 |
| CC(C)c1c2cc(-c3ccnc(N[C@H]4CC[C@H](NC5CCOCC5)CC4)n3)ccc2nn1C | CDK11B/Cyclin L2 (Homo sapiens, UniProt P21127) | % | 95.7 |
| CNc1nc(C)c(-c2nc(Nc3cccc(S(N)(=O)=O)c3)ncc2F)s1 | CDK11B/Cyclin L2 (Homo sapiens, UniProt P21127) | % | 41.6 |
